tested on: COLO 205 colon; test: NCI-60 one-dose screen, 48 h (100 = growth as untreated, 0 = no growth, -100 = all killed); conditions: 10 µM unless noted
This is part of a sample that, as a whole, favours compounds with a hit. Of some 83,000 tested, about 20% had one in any assay.
Reported metric: growth (%)

1. Nc1nonc1-n1nncc1-c1cccnc1 :: 114
2. O=C(Nc1ccc(-c2nc3ccc(NC(=O)c4ccc(Cl)cc4)cc3[nH]2)cc1)c1ccc(Cl)cc1 :: -74.3
3. CCOC(=O)c1cc2c(n1Cc1cc(OC)cc(OC)c1)-c1oncc1CCC2 :: -54.8
4. O=S(=O)(c1ccc(NC(=S)NC23CC4CC(CC(C4)C2)C3)cc1)N1CCCCC1 :: 119
5. NCCOc1ncccc1/C=C1\c2ccccc2-c2ccc(F)cc21 :: -30.1
6. O=C1c2cc(I)ccc2Oc2cc([N+](=O)[O-])ccc2N1c1ccc(Cl)cc1F :: 106
7. COc1cc(C2C3=C(COC3=O)N(CCO)c3cc4c(cc32)OCCO4)cc(OC)c1O (stereo not given) :: 18.2
8. COc1ccc(-c2nsc3c2NC(=O)CC3c2ccsc2)cc1 (stereo not given) :: -77.3
9. COc1ccc(C2=NN(/C=C3\SC(=O)NC3=Nc3ccc(F)cc3)C(c3ccc(F)cc3)C2)cc1 (stereo not given) :: 106
10. COc1ccc2[nH]c(O)c(N=NC(=O)c3oc4ccccc4c3C)c2c1 :: 22.8

----------
system: ACHN renal; assay: NCI-60 one-dose screen, 48 h; settings: 10 µM unless noted
The panel holds about 83,000 compounds, 20% with a hit somewhere; the sample as a whole holds those more often. Active and inactive are the calls of the source. The calls were made as follows: active = growth percent below 10; inactive = the rest.
Classes used: t (active), f (inactive)

1) CC/C=C\C[C@H](O)C/C=C1/C(=O)C=C[C@@H]1C/C=C\CCCC(=O)OCCS(=O)(=O)c1ccccc1 :: f
2) COc1ccc(/C=C/C(=O)c2ccc(Nc3nc(NCCO)nc(Nc4ccc(Cl)cc4)n3)cc2)cc1 :: f
3) COC(=O)c1c2c(c(C)[n+]([O-])c1C)C(=O)C(NCc1ccc(F)c(F)c1)=CC2=O :: f
4) O=C1/C(=C\c2ccc[nH]2)c2ccccc2N1c1ccccc1 :: f
5) O=S(=O)(c1ccccc1)n1cc2c(c1-c1ccccc1)CCc1sc(Nc3ccccc3)nc1-2 :: f
6) COc1cc(CNC(=O)c2ccsc2Nc2ccnc(C(F)(F)F)c2)ccc1O :: f
7) CCCCN1CCN(c2ccc3nc(-c4ccc5nc(-c6ccc(C(F)(F)F)cc6)[nH]c5c4)[nH]c3c2)CC1 :: t
8) CCOC(=O)c1ccc(N=Cc2sc(=O)[nH]c2O)cc1 :: f
9) S=C1NC2(c3ccccc3)CCC(=S)N2c2ccccc21 (stereo not given) :: f
10) CC(=S)NC(=O)C(=O)/C=C1/NC(=O)C(=O)S1 :: f

----------
Test system: NCI-H460 lung
Assay: NCI-60 one-dose screen, 48 h (100 = growth as untreated, 0 = no growth, -100 = all killed)
Conditions: 10 µM unless noted
Description: Growth inhibition of the NCI-H460 human Non-Small Cell Lung tumor cell line is measured as a screen for anti-cancer activity. Cells are grown in 96 well plates and exposed to the test compound for 48 hours. Compounds are tested at a single concentration, which is 10^-5 M for most compounds. The reported endpoint is percent growth (GI% or GIPRCNT), where numbers from 0 - 100% represent growth inhibition, and numbers from -100% - 0 represent cell death. […]
About 83,000 compounds went through this panel and 20% of them were active in at least one assay; those are over-represented in the sample as a whole.
Each entry gets -1 if its growth stays under 90%, and 1 if its growth is 90% or above.

1) CC(=O)O[C@@H]1/C=C/C(=O)N[C@@H](C)CCC/C=C/[C@@H]2CCC[C@H]21 :: 1
2) CN(C)CCNc1cc(-c2ccccc2)nc2ccccc12 :: -1
3) Nc1cccc(Nc2cc(S(=O)(=O)O)c(N)c3c2C(=O)c2ccccc2C3=O)c1 :: 1
4) COc1cc(-c2c3c(cn2S(=O)(=O)c2ccccc2)-c2nc(N)sc2CC3)cc(OC)c1OC :: -1
5) O=C1c2cc(Br)ccc2Oc2cc([N+](=O)[O-])ccc2N1c1ccc(I)cc1F :: 1
6) COC(=O)c1c2c(c(C)[n+]([O-])c1C)C(=O)C=C(NCc1ccccc1)C2=O :: -1
7) O=c1oc2ccc(Cl)cc2c(=O)n1-c1cc(C(F)(F)F)cc(C(F)(F)F)c1 :: -1
8) O=C(Nc1ccc(N2CCNCC2)cn1)c1[nH]ncc1Nc1ncnc2sccc12 :: -1

----------
System: RPMI-8226 leukemia
Assay: NCI-60 one-dose screen, 48 h (100 = growth as untreated, 0 = no growth, -100 = all killed)
Settings: 10 µM unless noted
Method: Growth inhibition of the RPMI-8226 human tumor cell line is measured as a screen for anti-cancer activity. Cells are grown in 96 well plates and exposed to the test compound for 48 hours. Compounds are tested at a single concentration, which is 10^-5 M for most compounds. The reported endpoint is percent growth (GI% or GIPRCNT), where numbers from 0 - 100% represent growth inhibition, and numbers from -100% - 0 represent cell death. For example, a value of 40 represents 60% growth inhibition. […]
This is part of a sample that, as a whole, favours compounds with a hit. Of some 83,000 tested, about 20% had one in any assay.
Each entry gets Not met if its growth stays under 40%, and Met if its growth is 40% or above.

1. COc1ccc(C(O)(CCC(C)C)C(CN2CCOCC2)c2ccc(Cl)cc2)cc1 (stereo unspecified) :: Met
2. Cc1ccc(Nc2nc(N)c3ccccc3n2)cc1Cl :: Not met
3. Cc1ccc(C(=O)c2oc3ccc4c(C)cc(=O)oc4c3c2C)cc1 :: Not met
4. COc1cc2nc(NC3CCCC3)nc(NC3CCN(C(C)C)CC3)c2cc1OC :: Not met
5. O=C(O)CCC(=O)c1ccc(C2CCCCCC2)cc1 :: Met
6. COc1cccc(-c2nn(C)c3sc(C(=O)NCCN4CCN(c5ccccc5F)CC4)cc23)c1 :: Not met
7. COc1ccc(Cn2c(Br)c3c(c2Br)-c2nc(NC(=O)c4ccc(OC)cc4)sc2CC3)cc1 :: Met
8. Cc1cccc(NC(=O)c2sc3nc4c(cc3c2N)CCCC4)c1C :: Not met
9. Cc1sc2ncnc(Sc3nc4ccccc4[nH]3)c2c1C :: Not met
10. O=c1c2cc(F)ccc2sc2c(NCCN3CCCC3)nc3ccccc3c12 :: Not met
11. O=[N+]([O-])c1cc2c(ccc3occc32)o1 :: Not met

----------
# growth per record follows
tested on: M14 melanoma; experiment: NCI-60 one-dose screen, 48 h (100 = growth as untreated, 0 = no growth, -100 = all killed); conditions: 10 µM unless noted
This is part of a sample that, as a whole, favours compounds with a hit. Of some 83,000 tested, about 20% had one in any assay.
Reported metric: growth (%)

1) O=c1nc2sc3nc4ccccc4cc3cc-2s1 :: 100
2) CCOC(=O)C1=C(C)N=c2s/c(=C\c3ccccc3O)c(=O)n2C1c1ccc(OC)c2ccccc12 (stereo not given) :: -71.7
3) O=C(c1nc2ccccc2[nH]1)C1C(c2ccc(F)cc2)C2CC3CCCCC3N2[C@@]12C(=O)Nc1ccc(Cl)cc12 (stereo not given in full) :: 40.7
4) CNCCNc1nc2ccccc2c2c(=O)c3cccc(C)c3sc12 :: -40.9
5) Cn1c(C(=O)c2cccc3ccccc23)nc2ccccc21 :: -45.9
6) COc1ccc(C2=NN(/C=C3\SC(=O)NC3=Nc3ccc(F)cc3)C(c3ccc(F)cc3)C2)cc1 (stereo not given) :: 104
7) O=C(Nc1ccccc1O)c1ccc(-c2ccc(Cl)cc2Cl)o1 :: 90
8) CCOc1cc(Cl)c(C(C)NC(=O)c2cccc(OC)c2)cc1OCC (stereo not given) :: -46.4
9) COC(=O)c1c2c(c(C)[n+]([O-])c1C)C(=O)C(NCc1ccc(F)c(F)c1)=CC2=O :: 4.33
10) O=C(Nc1ccc(N2CCNCC2)cn1)c1[nH]ncc1Nc1ncnc2sccc12 :: -61.3

----------
tested on: CCRF-CEM leukemia; assay: NCI-60 one-dose screen, 48 h; settings: 10 µM unless noted
Compounds without any hit were thinned out: in the full panel of roughly 83,000, 20% have a hit. The source made the active and inactive calls. The calls were made as follows: active = growth percent below 10; inactive = the rest.
Classes used: active, inactive

1) COc1cc(/C=C2\Oc3cc(OCCCN4CCCC4)ccc3C2=O)cc(OC)c1 :: active
2) CCCCC1COc2cccc3c2N1C=C/C3=C\C(=O)N(C)c1ccccc1 (configuration not stated) :: inactive
3) Nc1ncnc(N)c1NC(=O)c1ccc(OCc2ccccc2)cc1 :: inactive
4) COc1ccc(/C=C2\CCC/C(=C\c3ccc(OC)c(OC)c3)C2=O)cc1OC :: active
5) O=C(N/N=C/c1ccccc1O)C(=O)Nc1ccc(F)cc1 :: inactive
6) Cc1cc(OC(=O)c2ccc([N+](=O)[O-])cc2)nc2[nH]c(=O)sc12 :: inactive
7) O=C(Nc1ccc(Br)cc1F)c1cc(F)ccc1O :: active
8) CCOc1c(Br)cc(C2C(C(=O)OC)=CN(C)C=C2C(=O)OC)cc1OC :: inactive
9) C=C[C@@H]1CCC/C=C/[C@@H]2C[C@H](O)C[C@H]2[C@H](O)/C=C/C(=O)O1 :: inactive
10) Cn1cc(-c2ccc3ncc(-c4ccc(CC(=O)Nc5cc(C(C)(C)C)no5)cc4)nc3c2)cn1 :: inactive
11) O=c1cc(-c2ccccc2)oc2cc(OCc3cn(Cc4ccc(F)cc4)nn3)cc(OCc3cn(Cc4ccc(F)cc4)nn3)c12 :: inactive
12) CC[C@]1(O)C[C@@H]2CN(CCc3c([nH]c4ccccc34)[C@@](C(=O)OC)(c3cc4c(cc3OC)N(C)[C@H]3[C@@](O)(C(=O)OC)[C@H](OC(=O)CCCBr)[C@]5(CC)C=CCN6CC[C@]43[C@@H]65)C2)C1 :: active
13) O=C(Nc1ccc(-c2nc3ccc(NC(=O)c4ccc(Cl)cc4)cc3[nH]2)cc1)c1ccc(Cl)cc1 :: active
14) COC(=O)c1c2c(c(C)[n+]([O-])c1C)C(=O)C=C(NCc1ccccc1)C2=O :: active
15) O=C(/C=C/c1ccc(C(F)(F)F)cc1)c1ccc(Nc2nc(NCCO)nc(N3CCOCC3)n2)cc1 :: inactive
16) S=C1NC2(c3ccccc3)CCC(=S)N2c2ccccc21 (configuration not stated) :: inactive
17) CCCCOCc1cc(CN2CCN(C)CC2)c(O)c2ncccc12 :: inactive
18) O=c1c2cc(F)ccc2sc2c(NCCN3CCCC3)nc3ccccc3c12 :: inactive
19) CC(C)C[C@H](C(=O)N[C@H](C(N)=O)C(C)C)N1CC=CCN(OCc2ccccc2)S1(=O)=O :: inactive
20) c1ccc2cc3c(Nc4ccc(N5CCOCC5)cc4)ccnc3cc2c1 :: inactive
21) COc1ccc(CCN2C(=O)CCSC2=S)cc1 :: inactive
22) COc1cc2nc(NC3CCCC3)nc(NC3CCN(C(C)C)CC3)c2cc1OC :: inactive
23) O=C(N/N=C/c1ccccc1Cl)C(=O)Nc1cccc(C(F)(F)F)c1 :: inactive
24) CCOC(=O)c1sc(-c2ccc(OS(=O)(=O)c3ccccc3[N+](=O)[O-])c(C=O)c2)nc1C :: inactive
25) Cc1[nH]c2ccccc2c(=O)c1CC=C(Cl)Cl :: inactive
26) Cc1cc(Nc2ccc(OCc3ccccc3)cc2)nc2cc(O)ccc12 :: active
27) Nc1ccc(C2c3ccccc3Oc3ccccc32)cc1 :: inactive
28) Cc1cc(Br)c(N)c(Br)c1 :: inactive
29) CC(=S)NC(=O)C(=O)/C=C1/NC(=O)C(=O)S1 :: inactive
30) COc1cc(C2C3=C(COC3=O)N(CCO)c3cc4c(cc32)OCCO4)cc(OC)c1O (configuration not stated) :: inactive
31) COCCN(C(=O)Cc1cccs1)C(C(=O)NCc1ccc(OC)cc1)c1ccc(C(C)C)cc1 (configuration not stated) :: inactive
32) COc1ccc(C)c2sc(N(Cc3cccnc3)C(=O)c3ccc(C#N)cc3)nc12 :: active
33) COc1ccc(/C=c2\sc3n(c2=O)NC2C(N=3)N(C)C(=O)N2C)cc1 (configuration not stated) :: inactive
34) COc1cc(C=C2C(=O)N(C)C(=O)N(C)C2=O)cc(CN2CCCCC2)c1O :: inactive
35) O=c1c2cc(F)cc(Cl)c2sc2c(Cl)nc3ccccc3c12 :: inactive
36) CCCCC(O)(c1ccc(Cl)cc1)C(CN1CCOCC1)c1ccc(Cl)cc1 (configuration not stated) :: inactive
37) CCOC(=O)c1cnc2c(C)cccc2c1Nc1ccc(C(C)=O)cc1 :: active
38) CCOC(=O)c1ccc2[nH]c(-c3ccccc3)cc(=O)c2c1 :: inactive
39) CCN(CC)c1cc(C)c2cc(NC(=O)c3cccc(OC)c3)ccc2n1 :: inactive
40) O=C(Nc1ccc(Br)cc1F)c1cc(I)ccc1O :: inactive
41) CNCCNc1nc2ccccc2c2c(=O)c3cc(OC)ccc3sc12 :: active
42) CCOC(=O)c1cc2c(n1Cc1ccccc1OC)-c1oncc1CCC2 :: active
